B1: DnaJ homolog subfamily C member 2, residues 451 to 503; numbered along this chain, Q99543 (parent)
chain: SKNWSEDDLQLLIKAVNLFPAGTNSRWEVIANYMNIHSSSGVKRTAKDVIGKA

# Variants of: B1
# test-name: abundance fitness (aPCA) (normalised: wild type 0, dead -1); higher = more abundant; growth selection in yeast, the domain comes from the species named
# condition-description: Homo sapiens

{"biosequence": "SKNWSEDDLQLLIKAVNLFPAGENSRWEVIANYMNIHSSSGVKRTAKDVIGKA [T23E]", "abundance fitness": -0.325}
{"biosequence": "SKNWSEDDLQLLIKAVNLFPAGTNSRWEVIANYMNNHSSSGVKRTAKDVIGKA [I36N]", "abundance fitness": 0.049}
{"biosequence": "SKNWSVDDLQLLIKAVNLFPAGTNSRWEVIANYMNIHSSSGVKRTAKDVIGKA [E6V]", "abundance fitness": -0.121}
{"biosequence": "SKNWSEDDLQLLIKAVNLFPAGTNSSWEVIANYMNIHSSSGVKRTAKDVIGKA [R26S]", "abundance fitness": -0.934}
{"biosequence": "SKNWSEDDLQLLIKAVNLFPAGTNSRWEVIANYMNIHSSYGVKRTAKDVIGKA [S40Y]", "abundance fitness": -0.504}
{"biosequence": "SKNWSEDDLQLLIKAVNLFPAGTNSRWEVIANYMNIHSSSGVKRTAKDVIGKH [A53H]", "abundance fitness": -0.233}
{"biosequence": "SKNWSEDDLQLLIKAVNLFPAGTNSRWEVIHNYMNIHSSSGVKRTAKDVIGKA [A31H]", "abundance fitness": -0.919}
{"biosequence": "SKNWSEDDLQLLWKAVNLFPAGTNSRWEVIANYMNIHSSSGVKRTAKDVIGKA [I13W]", "abundance fitness": 0.058}
{"biosequence": "SKNWSEDDLQLLIKAVNLFQAGTNSRWEVIANYMNIHSSSGVKRTAKDVIGKA [P20Q]", "abundance fitness": -0.328}
{"biosequence": "SKNWSEDDLQLLIKAVNLFPAGTNSRWEVRANYMNIHSSSGVKRTAKDVIGKA [I30R]", "abundance fitness": -0.951}
{"biosequence": "SKNWSEDDLQLLIKAVNLFPAGTNSRAEVIANYMNIHSSSGVKRTAKDVIGKA [W27A]", "abundance fitness": -0.114}
{"biosequence": "SKNWSEDDLQLLIKAGNLFPAGTNSRWEVIANYMNIHSSSGVKRTAKDVIGKA [V16G]", "abundance fitness": -0.266}
{"biosequence": "SKNWSEDDLQLLIKAVNLFPAGTNSRWEVIANYMNIHSSSMVKRTAKDVIGKA [G41M]", "abundance fitness": -0.035}
{"biosequence": "SKNWSEDDLQLLIKIVNLFPAGTNSRWEVIANYMNIHSSSGVKRTAKDVIGKA [A15I]", "abundance fitness": -0.982}
{"biosequence": "SKNWSEDDLQLLIKAVNLFPAGTNSRFEVIANYMNIHSSSGVKRTAKDVIGKA [W27F]", "abundance fitness": -0.207}
{"biosequence": "SKNWSETDLQLLIKAVNLFPAGTNSRWEVIANYMNIHSSSGVKRTAKDVIGKA [D7T]", "abundance fitness": -0.005}
{"biosequence": "SKNWSEDDLGLLIKAVNLFPAGTNSRWEVIANYMNIHSSSGVKRTAKDVIGKA [Q10G]", "abundance fitness": -0.141}
{"biosequence": "SKNWSEDDLQRLIKAVNLFPAGTNSRWEVIANYMNIHSSSGVKRTAKDVIGKA [L11R]", "abundance fitness": -0.536}
{"biosequence": "SKNWSEDDLQLLIKAVNLFPAGTNSRWEVIANYMNIHSSSGVKRTAKDVIQKA [G51Q]", "abundance fitness": -0.043}
{"biosequence": "SKNWSEDDLQLLIKAVNLFPAGTNSRWEHIANYMNIHSSSGVKRTAKDVIGKA [V29H]", "abundance fitness": -0.096}
{"biosequence": "SKNWSEDDLQLLIKAVNLFPAGTNSRWEVIANYMNIHSSSGVKRTIKDVIGKA [A46I]", "abundance fitness": -0.167}
{"biosequence": "SKNWSEDDLQLLIKAVNLFPAGTNSRWEVIARYMNIHSSSGVKRTAKDVIGKA [N32R]", "abundance fitness": -0.095}
